Test system: S. aureus ATCC 35556
Assay: MBIC/MIC secondary assay
Type: cell-based, Staphylococcus aureus
Conditions: S. aureus strain 35556; Table 5
MBIC reference
A bare number is not enough; add the unit after it.

Solved cases (5 shown):
smiles-record	experimental-system	MBIC
CCOc1cc(/C=C2\SC(=S)N(c3cccnc3)C2=O)ccc1O	S. aureus ATCC 35556	12.5 µM
CCOc1cc(/C=C2\SC(=S)N(c3ccc(F)cc3)C2=O)ccc1O	S. aureus ATCC 35556	3.1 µM
C=CCOc1cc(/C=C2\SC(=S)N(c3ccc(F)cc3)C2=O)ccc1O	S. aureus ATCC 35556	3.1 µM
CCOc1cc(/C=C2\SC(=S)N(c3ccc(F)nc3)C2=O)ccc1O	S. aureus ATCC 35556	6.3 µM
CCOc1cc(/C=C2\SC(=S)N(c3cccc(C#N)c3)C2=O)ccc1O	S. aureus ATCC 35556	1.6 µM

Okay, next one:
Ask: So what's the measured MBIC for this one? "CCOc1cc(/C=C2\SC(=S)N(c3cccc(F)c3)C2=O)ccc1O"
Result: 6.3 µM
